# method-description: Pharmacokinetic experiment of the crystal form in Beagle dogs
# Type: in vivo
# cond: dog, plasma, po; male Beagle dogs, capsules orally, 10 mg/kg
experimental-readout: Cmax (ng/mL)

INSERT INTO measurements (molecule, experimental_result) VALUES
  ('Cn1c(=O)c(C(=O)NCC(=O)O)c(O)c2ccc(Oc3ccccc3)cc21 [Example 1]', 2810);

----------
# method-description: Pharmacokinetic experiment of the crystal form in Beagle dogs
# Type: in vivo
# cond: dog, plasma, po; male Beagle dogs, capsules orally, 10 mg/kg
experimental-readout: Tmax

INSERT INTO assay_data (structure_smiles_string, experimental_result) VALUES
  ('Cn1c(=O)c(C(=O)NCC(=O)O)c(O)c2ccc(Oc3ccccc3)cc21', '1.17 h');

----------
# method-description: Pharmacokinetic experiment of the crystal form in Beagle dogs
# Type: in vivo
# cond: dog, plasma, po; male Beagle dogs, capsules orally, 10 mg/kg
# Method: The crystal form of the compound of formula (I) of the present invention is filled into capsules for oral administration. 8-12 kg male Beagle dogs were taken, and 3 as a group. […] Standard curve was plotted based on concentrations of the samples in a suitable range, the concentration of the test sample in the plasma sample was measured and quantified by AB SCIEX API4000 LC-MS/MS at MRM mode. […]
experimental-readout: AUC(0-t) (ng·h/mL)

INSERT INTO results (structure_smiles_string, experimental_readout, units_text, experimental_result) VALUES
  ('Cn1c(=O)c(C(=O)NCC(=O)O)c(O)c2ccc(Oc3ccccc3)cc21', 'AUC(0-t)', 'ng·h/mL', 9300);
